pIC50: −log10 of the molar value.
Reported pIC50 for target or system acetylcholinesterase (AChE) (Electrophorus electricus, UniProt O42275), by entry.

CHEMICAL STRING	pIC50
C[C@@H]1COC(c2cc3c(cn2)OC(C)(C)[C@H](O)C3)=CC1=O	4.94
C[C@H]1COC(c2cc3c(cn2)OC(C)(C)[C@H](O)C3)=CC1=O	4.90
